// reported Percent control for each item listed
- measured.target: EPHA6 (Homo sapiens, UniProt Q9UF33)
- Sequence (Q9UF33 23-1036): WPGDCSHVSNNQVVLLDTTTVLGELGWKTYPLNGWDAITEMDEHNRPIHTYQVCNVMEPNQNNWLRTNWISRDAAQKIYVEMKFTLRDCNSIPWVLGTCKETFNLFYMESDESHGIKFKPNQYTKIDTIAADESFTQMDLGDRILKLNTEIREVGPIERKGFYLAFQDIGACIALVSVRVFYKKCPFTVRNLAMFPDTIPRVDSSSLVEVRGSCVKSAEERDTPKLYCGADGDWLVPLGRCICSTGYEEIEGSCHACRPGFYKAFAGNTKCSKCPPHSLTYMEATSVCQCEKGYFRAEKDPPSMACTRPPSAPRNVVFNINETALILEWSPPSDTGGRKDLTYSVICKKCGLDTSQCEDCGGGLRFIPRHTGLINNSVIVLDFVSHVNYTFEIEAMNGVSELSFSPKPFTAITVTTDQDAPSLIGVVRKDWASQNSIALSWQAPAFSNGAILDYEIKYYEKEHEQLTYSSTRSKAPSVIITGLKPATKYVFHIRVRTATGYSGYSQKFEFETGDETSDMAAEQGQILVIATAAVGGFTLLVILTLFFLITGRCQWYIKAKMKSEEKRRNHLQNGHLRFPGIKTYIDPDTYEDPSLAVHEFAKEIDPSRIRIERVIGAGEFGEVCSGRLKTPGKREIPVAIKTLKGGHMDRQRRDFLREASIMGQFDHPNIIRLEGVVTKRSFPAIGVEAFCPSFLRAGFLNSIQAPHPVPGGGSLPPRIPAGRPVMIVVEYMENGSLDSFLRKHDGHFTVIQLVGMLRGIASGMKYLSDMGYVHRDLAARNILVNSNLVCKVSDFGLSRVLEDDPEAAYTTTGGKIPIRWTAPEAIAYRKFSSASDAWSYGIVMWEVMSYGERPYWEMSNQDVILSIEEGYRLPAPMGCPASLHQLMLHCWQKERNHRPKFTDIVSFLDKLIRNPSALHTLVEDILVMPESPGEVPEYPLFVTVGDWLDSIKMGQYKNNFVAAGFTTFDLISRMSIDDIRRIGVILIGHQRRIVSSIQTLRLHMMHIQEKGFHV
- assay.setup: 10 μM

Ask | Suppose we examine the compound Cc1ccc(NC(=O)c2ccc(CN3CCN(C)CC3)cc2)cc1Nc1nccc(-c2cccnc2)[n+]1[Pt-2]1([Cl])[NH2+]C2CCCCC2[NH2+]1 (stereo not shown) [1b, oxaliplatin-imatinib] ; what Percent control value has been reported?
Reply | 90%

Ask | Suppose we examine the compound COc1cc2c(Nc3ccc(Br)cc3F)[n+]([Pt-2]3([Cl])[NH2+]C4CCCCC4[NH2+]3)cnc2cc1OCC1CCN(C)CC1 (stereo not shown) [3b, oxaliplatin-vandetanib] ; what Percent control value has been reported?
Reply | 6.3%

Ask | Suppose we examine the compound C#Cc1cccc(Nc2c3cc(OCCOC)c(OCCOC)cc3nc[n+]2[Pt@SP2-2]([NH3+])([NH3+])[Cl])c1 [2a, cisplatin-erlotinib] ; what Percent control value has been reported?
Reply | 71%

Ask | Suppose we examine the compound Cc1ccc(NC(=O)c2ccc(CN3CCN(C)CC3)cc2)cc1Nc1nccc(-c2cccnc2)n1 [Imatinib, reference compound] ; what Percent control value has been reported?
Reply | 100%

###

- measured.target: EPHA3 (Homo sapiens)
- Construct: purchased DiscoveRx KINOMEscan
- Sequence (P29320 21-983): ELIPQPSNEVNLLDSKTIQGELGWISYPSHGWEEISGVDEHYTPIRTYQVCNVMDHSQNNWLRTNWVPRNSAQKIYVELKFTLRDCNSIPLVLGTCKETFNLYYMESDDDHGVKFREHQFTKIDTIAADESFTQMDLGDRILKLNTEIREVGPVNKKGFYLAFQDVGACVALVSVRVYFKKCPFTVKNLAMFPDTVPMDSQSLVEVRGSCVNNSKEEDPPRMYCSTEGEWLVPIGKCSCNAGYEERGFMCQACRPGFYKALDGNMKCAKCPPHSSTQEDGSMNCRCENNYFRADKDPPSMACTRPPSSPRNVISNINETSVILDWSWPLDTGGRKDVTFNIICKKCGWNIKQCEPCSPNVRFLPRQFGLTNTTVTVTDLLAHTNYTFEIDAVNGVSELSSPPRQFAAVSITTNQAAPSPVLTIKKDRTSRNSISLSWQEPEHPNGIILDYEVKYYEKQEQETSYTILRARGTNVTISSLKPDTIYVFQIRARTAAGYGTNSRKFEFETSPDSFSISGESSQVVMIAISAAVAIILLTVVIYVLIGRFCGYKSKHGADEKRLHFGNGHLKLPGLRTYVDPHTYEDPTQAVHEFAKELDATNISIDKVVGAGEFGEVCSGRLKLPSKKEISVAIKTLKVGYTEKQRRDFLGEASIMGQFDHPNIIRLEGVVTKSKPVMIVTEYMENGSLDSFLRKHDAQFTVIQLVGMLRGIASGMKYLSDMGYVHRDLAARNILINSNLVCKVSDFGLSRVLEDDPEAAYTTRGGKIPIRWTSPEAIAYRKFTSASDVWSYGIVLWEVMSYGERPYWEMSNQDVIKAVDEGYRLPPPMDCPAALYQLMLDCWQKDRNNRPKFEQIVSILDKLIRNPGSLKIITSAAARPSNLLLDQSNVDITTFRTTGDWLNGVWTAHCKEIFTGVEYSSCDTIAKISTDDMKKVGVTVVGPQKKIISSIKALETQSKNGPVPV
- Assay type: binding
- assay.setup: EPHA3; 10 μM
// reported Percent control for each item listed
Field: numeric (%). Do not append units.

Some entries whose results are on file:
Cc1ccc(NC(=O)c2ccc(CN3CCN(C)CC3)cc2)cc1Nc1nccc(-c2cccnc2)[n+]1[Pt-2]1([Cl])[NH2+]C2CCCCC2[NH2+]1 (stereo not shown) [1b, oxaliplatin-imatinib]
64
C#Cc1cccc(Nc2c3cc(OCCOC)c(OCCOC)cc3nc[n+]2[Pt@SP2-2]([NH3+])([NH3+])[Cl])c1 [2a, cisplatin-erlotinib]
60
COc1cc2c(Nc3ccc(Br)cc3F)[n+]([Pt-2]3([Cl])[NH2+]C4CCCCC4[NH2+]3)cnc2cc1OCC1CCN(C)CC1 (stereo not shown) [3b, oxaliplatin-vandetanib]
30

Ask | Suppose we examine the compound Cc1ccc(NC(=O)c2ccc(CN3CCN(C)CC3)cc2)cc1Nc1nccc(-c2cccnc2)n1 [Imatinib, reference compound] ; what Percent control value has been reported?
Reply | 100

###

- measured.target: TEC (Homo sapiens)
- Construct: purchased DiscoveRx (KINOMEscan service)
- Sequence (P42680 whole entry): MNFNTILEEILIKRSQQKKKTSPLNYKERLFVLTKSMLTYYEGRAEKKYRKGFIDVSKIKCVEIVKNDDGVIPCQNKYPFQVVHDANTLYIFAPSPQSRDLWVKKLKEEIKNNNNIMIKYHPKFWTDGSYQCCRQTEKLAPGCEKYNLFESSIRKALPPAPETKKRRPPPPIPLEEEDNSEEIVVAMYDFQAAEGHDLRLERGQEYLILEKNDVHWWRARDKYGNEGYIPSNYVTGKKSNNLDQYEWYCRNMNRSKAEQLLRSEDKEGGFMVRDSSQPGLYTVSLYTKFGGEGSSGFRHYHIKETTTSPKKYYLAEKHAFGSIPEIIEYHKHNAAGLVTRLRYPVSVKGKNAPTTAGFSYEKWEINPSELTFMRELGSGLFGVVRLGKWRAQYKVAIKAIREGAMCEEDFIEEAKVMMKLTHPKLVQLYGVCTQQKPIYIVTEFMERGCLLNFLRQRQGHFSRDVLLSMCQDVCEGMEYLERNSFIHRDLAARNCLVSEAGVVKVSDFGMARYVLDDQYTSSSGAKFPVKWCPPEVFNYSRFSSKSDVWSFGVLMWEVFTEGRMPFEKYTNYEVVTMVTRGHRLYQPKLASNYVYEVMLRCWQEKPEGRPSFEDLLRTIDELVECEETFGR
- Format: binding
- assay.setup: TEC; 10 μM
measured.property: Percent control (%)
Field: numeric (%). Do not append units.

Some entries whose results are on file:
C#Cc1cccc(Nc2c3cc(OCCOC)c(OCCOC)cc3nc[n+]2[Pt@SP2-2]([NH3+])([NH3+])[Cl])c1 [2a, cisplatin-erlotinib]
72
Cc1ccc(NC(=O)c2ccc(CN3CCN(C)CC3)cc2)cc1Nc1nccc(-c2cccnc2)[n+]1[Pt-2]1([Cl])[NH2+]C2CCCCC2[NH2+]1 (stereo not shown)
100
COc1cc2c(Nc3ccc(Br)cc3F)[n+]([Pt-2]3([Cl])[NH2+]C4CCCCC4[NH2+]3)cnc2cc1OCC1CCN(C)CC1 (stereo not shown)
100

Ask | Suppose we examine the molecule Cc1ccc(NC(=O)c2ccc(CN3CCN(C)CC3)cc2)cc1Nc1nccc(-c2cccnc2)n1 [Imatinib, reference compound] ; what Percent control value has been reported?
Reply | 100

###

- measured.target: ERBB4 (Homo sapiens)
- Construct: purchased DiscoveRx KINOMEscan
- Sequence (Q15303 26-1308): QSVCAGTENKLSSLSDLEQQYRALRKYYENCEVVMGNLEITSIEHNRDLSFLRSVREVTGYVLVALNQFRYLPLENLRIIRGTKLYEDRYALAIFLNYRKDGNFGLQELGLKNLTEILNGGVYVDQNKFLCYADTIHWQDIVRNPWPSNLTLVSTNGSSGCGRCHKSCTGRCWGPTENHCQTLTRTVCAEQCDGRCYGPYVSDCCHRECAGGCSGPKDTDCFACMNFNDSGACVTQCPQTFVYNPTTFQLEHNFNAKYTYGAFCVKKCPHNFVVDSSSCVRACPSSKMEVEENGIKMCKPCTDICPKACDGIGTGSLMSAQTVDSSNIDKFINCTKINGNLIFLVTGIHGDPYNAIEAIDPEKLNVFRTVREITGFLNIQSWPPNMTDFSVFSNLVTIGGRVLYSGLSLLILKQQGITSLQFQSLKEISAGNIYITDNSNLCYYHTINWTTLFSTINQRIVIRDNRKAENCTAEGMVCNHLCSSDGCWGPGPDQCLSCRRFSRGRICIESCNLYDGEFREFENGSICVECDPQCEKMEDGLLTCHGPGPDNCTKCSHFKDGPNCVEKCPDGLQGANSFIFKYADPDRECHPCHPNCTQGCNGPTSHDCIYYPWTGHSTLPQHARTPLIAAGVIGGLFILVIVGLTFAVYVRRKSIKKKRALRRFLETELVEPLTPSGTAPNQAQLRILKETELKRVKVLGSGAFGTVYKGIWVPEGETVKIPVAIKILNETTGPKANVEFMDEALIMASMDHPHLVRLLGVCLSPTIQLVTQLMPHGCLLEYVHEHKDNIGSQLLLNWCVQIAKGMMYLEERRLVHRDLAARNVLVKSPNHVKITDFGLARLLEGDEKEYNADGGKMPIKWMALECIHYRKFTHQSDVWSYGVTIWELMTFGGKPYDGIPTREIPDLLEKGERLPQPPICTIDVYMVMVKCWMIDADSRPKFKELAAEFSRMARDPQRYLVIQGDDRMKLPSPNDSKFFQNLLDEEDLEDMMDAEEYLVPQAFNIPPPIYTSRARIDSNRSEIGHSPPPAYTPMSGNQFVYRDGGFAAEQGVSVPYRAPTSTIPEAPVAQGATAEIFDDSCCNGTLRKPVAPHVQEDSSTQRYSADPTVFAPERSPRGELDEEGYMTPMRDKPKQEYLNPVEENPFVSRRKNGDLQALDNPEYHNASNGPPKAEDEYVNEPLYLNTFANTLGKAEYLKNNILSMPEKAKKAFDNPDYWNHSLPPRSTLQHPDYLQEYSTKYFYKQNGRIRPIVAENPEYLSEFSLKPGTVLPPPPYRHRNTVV
- Assay type: binding
- assay.setup: ERBB4; 10 μM
// reported Percent control for each item listed
Field: numeric (%). Do not append units.

Cc1ccc(NC(=O)c2ccc(CN3CCN(C)CC3)cc2)cc1Nc1nccc(-c2cccnc2)[n+]1[Pt-2]1([Cl])[NH2+]C2CCCCC2[NH2+]1 (stereo not shown)
93
C#Cc1cccc(Nc2c3cc(OCCOC)c(OCCOC)cc3nc[n+]2[Pt@SP2-2]([NH3+])([NH3+])[Cl])c1 [2a, cisplatin-erlotinib]
47

Ask | Record COc1cc2c(Nc3ccc(Br)cc3F)[n+]([Pt-2]3([Cl])[NH2+]C4CCCCC4[NH2+]3)cnc2cc1OCC1CCN(C)CC1 (stereo not shown) : what is its Percent control with ERBB4 (Homo sapiens)?
Reply | 56

Ask | Record Cc1ccc(NC(=O)c2ccc(CN3CCN(C)CC3)cc2)cc1Nc1nccc(-c2cccnc2)n1 [Imatinib, reference compound] : what is its Percent control with ERBB4 (Homo sapiens)?
Reply | 100

meta.source: paper PMC4858680
